Numbers sourced from ChEMBL document CHEMBL1122207.

Property: ILS at 25 mg/kg; scope: individual compounds
system: Mus musculus; assay: Percent increase in median life span of BDF1 mice with P-388 leukemia at dose 25 mg/kg administered intraperitoneally; type: functional; settings: BDF1, P388, ip, route intraperitoneal
// return numeric value only (unit: %, not printed)

Structure Smiles	ILS at 25 mg/kg / %
CC(C)CN(CC/N=C(\S)N/N=C/c1c2ccccc2c(/C=N/N/C(S)=N/CCN(CC(C)C)CC(C)C)c2ccccc12)CC(C)C.Cl.Cl	33
Cl.Cl.N=C(N)N/N=C/c1c2ccccc2c(/C=N/N=C(N)N)c2ccccc12	132
CN(C)CCCCC/N=C(\S)N/N=C/c1c2ccccc2c(/C=N/N/C(S)=N/CCCCCN(C)C)c2ccccc12.Cl.Cl	48

Could you now consider this next compound?
Report measured ILS at 25 mg/kg; entry is `N=C(NCc1ccccc1)N/N=C/c1c2ccccc2c(/C=N/NC(=N)NCc2ccccc2)c2ccccc12`
68

* * *

Here, each record is paired with measured Inhibition data.
tested on: Mus musculus; test: Percent tumor inhibition at non-lethal dose was determined in BDF1 mice with madison lung 109 leukemia; 1, 5, 9 days of sc treatment relative to tumor inoculation; type: functional
# number then unit; no other words

Structure Smiles	Inhibition
Cl.Cl.Clc1ccc2c(/C=N/NC3=NCCCN3)c3ccccc3c(/C=N/NC3=NCCCN3)c2c1	16%
C/N=C(\N)N/N=C/c1c2ccccc2c(/C=N/N/C(N)=N/C)c2ccccc12	89%
C(=N\NC1=NCCN1)/c1c2ccccc2c(/C=N/NC2=NCCN2)c2ccccc12	20%

Kindly review the next compound as well.
Note down Inhibition recorded for `CC1(C)CN=C(N/N=C/c2c3ccccc3c(/C=N/NC3=NCC(C)(C)CN3)c3ccccc23)NC1.Cl.Cl`
31%

* * *

organism: Mus musculus; assay: Cures is the number of survivors of the total treated mice (10) with B-16 melanoma, at 60 days.; format: functional
Would you mind labelling by Cures? At or over 4 is 1 (yes), under is 0 (no).

Threshold query (Cures >= 4) on `Cl.Cl.S=C(NCCN1CCOCC1)N/N=C/c1c2ccccc2c(/C=N/NC(=S)NCCN2CCOCC2)c2ccccc12`
0 (no)

Is reported Cures greater than or equal to 4 here: `Cl.Cl.Fc1ccc2c(/C=N/NC3=NCCN3)c3cc(F)ccc3c(/C=N/NC3=NCCN3)c2c1`
0 (no)

Say whether `Cl.Cl.Clc1ccc2c(/C=N/NC3=NCCCN3)c3ccccc3c(/C=N/NC3=NCCCN3)c2c1` shows Cures of 4 or more.
1 (yes)

Could you tell me if the measured Cures of `CC1(C)CNC(N/N=C/c2c3ccccc3c(/C=N/NC3=NCC(C)(C)N3)c3ccccc23)=N1.Cl.Cl` reaches 4 or more?
1 (yes)

Has Cl.Cl.Clc1cccc2c1C(/C=N/NC1=NCCN1)c1ccccc1C2/C=N/NC1=NCCN1 (stereo not drawn) a recorded Cures greater than or equal to 4?
0 (no)

* * *

Form field: Cures (one value per entry).
species on record: Mus musculus; test: Cures is the number of survivors of the total treated mice (10) with B-16 melanoma, at 60 days.; type: functional
Reply with the value as a number alone.

Compound	Cures
Cc1ccc2c(/C=N/NC3=NCCN3)c3ccccc3c(/C=N/NC3=NCCN3)c2c1Cl.Cl.Cl	4
Cl.Cl.Clc1ccc2c(c1)C(/C=N/NC1=NCCN1)c1ccccc1C2/C=N/NC1=NCCN1 (stereo not drawn)	5

Check the records and state Cures for `C(=N\NC1=NCCCCN1)/c1c2ccccc2c(/C=N/NC2=NCCCCN2)c2ccccc12`
1

Check the records and state Cures for `Cl.Cl.Fc1ccc2c(/C=N/NC3=NCCN3)c3ccccc3c(/C=N/NC3=NCCN3)c2c1`
4

For `Cc1ccc2c(/C=N/NC3=NCCN3)c3ccccc3c(/C=N/NC3=NCCN3)c2c1.Cl.Cl` , write its Cures.
4

Tell me Cures reported for `Cl.Cl.N/C(=N\N=C\c1c2ccccc2c(/C=N/N/C(N)=N/CCO)c2ccccc12)NCCO`
1

* * *

species: Mus musculus; experiment: Cures is the number of survivors of the total treated mice (10) with B-16 melanoma, at 60 days.; assay type: functional
Recorded Cures, one value per entry.
Please reply with the number alone, leaving off any unit.

In the examples that follow, each entry is paired with its recorded Cures.
Structure Smiles	Reading
CC1(C)CN=C(N/N=C/c2c3ccccc3c(/C=N/NC3=NCC(C)(C)CN3)c3ccccc23)NC1.Cl.Cl	4
C(=N\NC1=NCCN1)/c1c2ccccc2c(/C=N/NC2=NCCN2)c2cc3ccccc3cc12.Cl.Cl	1
Cl.Cl.Clc1ccc2c(/C=N/NC3=NCCN3)c3ccccc3c(/C=N/NC3=NCCN3)c2c1	4
Cl.Cl.Clc1cccc2c(/C=N/NC3=NCCN3)c3ccccc3c(/C=N/NC3=NCCN3)c12	3
C(=N\NC1=NCC2(CC2)CN1)/c1c2ccccc2c(/C=N/NC2=NCC3(CC3)CN2)c2ccccc12.Cl.Cl	4
Cl.Cl.Fc1cccc2c(/C=N/NC3=NCCN3)c3c(F)cccc3c(/C=N/NC3=NCCN3)c12	5

Next up:
Give a short answer stating reported Cures for `Cl.Cl.Fc1cccc2c(/C=N/NC3=NCCN3)c3ccccc3c(/C=N/NC3=NCCN3)c12` .
1
